- Study target: UniProt P16610
- Sequence (P16610 whole entry): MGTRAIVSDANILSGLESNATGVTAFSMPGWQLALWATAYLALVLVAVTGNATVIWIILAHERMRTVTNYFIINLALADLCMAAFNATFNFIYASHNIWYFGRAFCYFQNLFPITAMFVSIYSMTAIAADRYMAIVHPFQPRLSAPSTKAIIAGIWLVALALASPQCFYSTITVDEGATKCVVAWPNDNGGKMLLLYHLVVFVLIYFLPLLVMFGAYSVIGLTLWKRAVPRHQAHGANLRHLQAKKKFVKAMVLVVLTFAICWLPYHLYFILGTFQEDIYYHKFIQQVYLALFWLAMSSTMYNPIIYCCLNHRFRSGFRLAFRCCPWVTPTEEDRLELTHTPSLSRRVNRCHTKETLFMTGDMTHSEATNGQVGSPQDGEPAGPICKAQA
- Experiment notes: Antagonist activity at NK2 receptor in rat urinary bladder assessed as effect on beta-Ala8]NKA(4-10)-induced mechanical activity
- Format: functional
- Assay setup: filed as antagonist
Measured attribute: pKb

>>> reported("CC(=O)N[C@H]1[C@H](NC(=O)CCC(=O)N[C@@H]2CC(=O)N[C@@H](Cc3c[nH]c4ccccc34)C(=O)N[C@@H](Cc3ccccc3)C(=O)N[C@H](Cc3ccccc3)CNC2=O)O[C@H](CO)C(O)[C@@H]1O (single isomer, unassigned)")
7.6
>>> reported("CC(=O)N[C@@H](CN[C@@H]1CC(=O)N[C@@H](Cc2c[nH]c3ccccc23)C(=O)N[C@@H](Cc2ccccc2)C(=O)N[C@H](Cc2ccccc2)CNC1=O)[C@@H](O)[C@H](O)[C@H](O)CO")
8.1

From: ChEMBL document CHEMBL1149315
